assay: Displacement of [3H]DTG from sigma2 receptor in rat liver membrane by liquid scintillation counting; type: cell membranes
Readout Type: Ki (nM)
Report as a plain number; the unit nM is understood.

Below, each entry is followed by its recorded Ki result.
{"Molecular String": "CN(CCCCn1c(=O)oc2ccccc21)Cc1ccccc1", "Unit Symbol": "nM", "Ki": 120}
{"Molecular String": "Cc1ccc(CN(C)CCCCn2c(=O)oc3ccccc32)c(C)c1", "Unit Symbol": "nM", "Ki": 6.94}
{"Molecular String": "CN(CCCn1c(=O)oc2ccccc21)Cc1cccc(Cl)c1", "Unit Symbol": "nM", "Ki": 1120}
{"Molecular String": "CN(CCCCn1c(=O)oc2ccccc21)Cc1ccccc1Cl", "Unit Symbol": "nM", "Ki": 37.4}
{"Molecular String": "Cc1ccc(CN(C)CCCCn2c(=O)oc3ccccc32)cc1", "Unit Symbol": "nM", "Ki": 22.9}

// below: Ki requested for another compound
Lab note: COc1ccc(CN(C)CCCn2c(=O)oc3ccccc32)cc1 gave Ki of 2600

====

biological target: Sigma non-opioid intracellular receptor 1 (Rattus norvegicus, UniProt Q9R0C9); test: Displacement of [3H](+)-pentazocine from sigma1 receptor in rat liver membrane by liquid scintillation counting
Sequence (Q9R0C9 whole entry): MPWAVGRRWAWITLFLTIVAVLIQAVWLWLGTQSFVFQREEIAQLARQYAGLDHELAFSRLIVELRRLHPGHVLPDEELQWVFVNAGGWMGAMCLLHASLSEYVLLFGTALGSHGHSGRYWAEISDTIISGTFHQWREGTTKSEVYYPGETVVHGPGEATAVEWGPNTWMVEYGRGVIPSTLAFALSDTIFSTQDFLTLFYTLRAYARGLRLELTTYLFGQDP
// NB: equality with 300 nM counts as NO; only Ki strictly below is YES

{"Molecular String": "CN(CCCn1c(=O)oc2ccccc21)Cc1ccccc1Cl", "Class Label": "NO"}

Request: Given Cc1ccc(CN(C)CCCCn2c(=O)oc3ccccc32)c(C)c1 , is recorded Ki strictly lower than 300 nM?
Response: YES

Request: Given Cc1ccc(CN(C)CCCn2c(=O)oc3ccccc32)cc1 , is recorded Ki strictly lower than 300 nM?
Response: NO

Request: Given COc1ccc(CN(C)CCCCn2c(=O)oc3ccccc32)cc1 , is recorded Ki strictly lower than 300 nM?
Response: YES

Request: Given Cc1ccc(CN2CCC(C(=O)NCc3ccccc3)CC2)cc1 , is recorded Ki strictly lower than 300 nM?
Response: YES

Request: Given Cc1cccc(CN(C)CCCCn2c(=O)oc3ccccc32)c1 , is recorded Ki strictly lower than 300 nM?
Response: YES

Request: Given COc1ccccc1CN(C)CCCn1c(=O)oc2ccccc21 , is recorded Ki strictly lower than 300 nM?
Response: NO

====

Each item that follows carries a reported pKi.
assay: Displacement of [3H]DTG from sigma2 receptor in rat liver membrane by liquid scintillation counting; type: cell membranes
pKi field: float, defined as -log10 of concentration (mol/L).

Below, each entry is followed by its recorded pKi result.
{"Compound": "CC(C)=CCN1CC[C@]2(C)c3cc(O)ccc3C[C@H]1[C@H]2C [(+)-PENTAZOCINE]", "pKi": 6.49}
{"Compound": "Cc1ccccc1NC(=N)Nc1ccccc1C", "pKi": 6.89}
{"Compound": "Cc1ccc(CN(C)CCCn2c(=O)oc3ccccc32)c(C)c1", "pKi": 5.69}
{"Compound": "Cc1ccc(CN(C)CCCn2c(=O)oc3ccccc32)cc1", "pKi": 6.00}
{"Compound": "O=C(CCCN1CCC(O)(c2ccc(Cl)cc2)CC1)c1ccc(F)cc1", "pKi": 6.63}
{"Compound": "CN(CCCn1c(=O)oc2ccccc21)Cc1ccc(Cl)cc1", "pKi": 6.34}

Lab note: COc1cccc(CN(C)CCCCn2c(=O)oc3ccccc32)c1 gave pKi of 6.73
